# Assay Target: full length human IRAK4 protein (Homo sapiens, UniProt Q9NWZ3)
# Construct: Purified full length human IRAK4 protein; purchased Signal Chem I12-10G-125
# Assay Remarks: IRAK4 Biochemical Assay (Promega ADP-Glo IRAK4 Kinase Enzyme System)
# Applied Conditions: maximum inhibition; 3 nM enzyme, 250 μM ATP
Quick list: IRAK4 Biochemical Assay Max Inhibition (%) per entry.
Reported Property: IRAK4 Biochemical Assay Max Inhibition (%)

Compound	Observed Measurement
CC[C@@H]1[C@H](F)C(=O)N[C@@H]1COc1ncc(C#CCN(C)C)c2cc(C(N)=O)c(OC)cc12 [Example 5]	100.0%
CC[C@@H]1[C@H](F)C(=O)N[C@@H]1COc1ncc(C#Cc2cccnc2)c2cc(C(N)=O)c(OC)cc12 [Example 14]	100.0%
CC[C@@H]1[C@H](F)C(=O)N[C@@H]1COc1ncc(C#Cc2cncnc2)c2cc(C(N)=O)c(OC)cc12 [Example 12]	100.0%
CC[C@@H]1[C@H](F)C(=O)N[C@@H]1COc1ccc(C#CCN(C)C)c2cc(C(N)=O)c(OC)cc12 [Example 15]	101.0%
CC[C@@H]1[C@H](F)C(=O)N[C@@H]1COc1ncc(C#CC(C)(C)NC(=O)OC(C)(C)C)c2cc(C(N)=O)c(OC)cc12 [Example 1]	100.0%
CC[C@@H]1[C@H](F)C(=O)N[C@@H]1COc1ncc(C#C[C@H](C)O)c2cc(C(N)=O)c(OC)cc12 [Example 18]	95.0%
CC[C@@H]1[C@H](F)C(=O)N[C@@H]1COc1ncc(C#CC(=O)O)c2cc(C(N)=O)c(OC)cc12 [Example 4]	98.0%

---

# Assay Target: IRAK4 (Homo sapiens, UniProt Q9NWZ3)
# Construct: host or cells: human peripheral blood mononuclear cells (PBMCs)
# Sequence (Q9NWZ3 1-460): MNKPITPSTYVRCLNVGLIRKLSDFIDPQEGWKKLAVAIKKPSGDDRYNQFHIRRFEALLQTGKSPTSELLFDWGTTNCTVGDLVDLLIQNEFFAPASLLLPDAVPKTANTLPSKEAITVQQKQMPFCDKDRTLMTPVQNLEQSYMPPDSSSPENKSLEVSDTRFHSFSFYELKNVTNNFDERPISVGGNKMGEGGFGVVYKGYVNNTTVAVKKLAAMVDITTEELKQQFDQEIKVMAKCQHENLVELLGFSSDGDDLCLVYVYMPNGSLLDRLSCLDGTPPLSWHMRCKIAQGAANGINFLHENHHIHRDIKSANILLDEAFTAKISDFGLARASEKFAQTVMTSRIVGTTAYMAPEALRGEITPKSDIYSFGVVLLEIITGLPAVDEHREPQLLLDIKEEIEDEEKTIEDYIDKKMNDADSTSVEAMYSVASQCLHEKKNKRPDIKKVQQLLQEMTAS
# Assay Remarks: IRAK4 Human PBMC TNFα Cell Based Assay (AlphaLISA)
# Applied Conditions: human PBMCs stimulated by IL-1β (10 ng/ml), 24 h; TNFα measured; read-out: IRAK4 PBMC AlphaLISA IL-1β (IC50)
pIC50: −log10 of the molar value.
Quick list: pIC50 per entry.

Structure Notation	pIC50
CC[C@@H]1[C@H](F)C(=O)N[C@@H]1COc1ncc(C#CCOC)c2cc(C(N)=O)c(OC)cc12	8.89
CC[C@@H]1[C@H](F)C(=O)N[C@@H]1COc1ncc(C#Cc2ncccn2)c2cc(C(N)=O)c(OC)cc12	8.06
CC[C@@H]1[C@H](F)C(=O)N[C@@H]1COc1ncc(C#Cc2cncnc2)c2cc(C(N)=O)c(OC)cc12	9.10
CC[C@@H]1[C@H](F)C(=O)N[C@@H]1COc1ncc(C#CC(C)(C)O)c2cc(C(N)=O)c(OC)cc12	8.33
CC[C@@H]1[C@H](F)C(=O)N[C@@H]1COc1ncc(C#CCOC)c2cc(C(N)=O)c(OC(C)C)cc12	8.41
COc1cc2c(OC[C@@H]3CCC(=O)N3)ncc(C#CCN(C)C)c2cc1C(N)=O	6.89
CC[C@@H]1[C@H](F)C(=O)N[C@@H]1COc1ncc(C#Cc2cn[nH]c2)c2cc(C(N)=O)c(OC)cc12	8.77
